These data points were gathered from the supplement of paper PMC10567573.

Experiment: protein stability index of a GFP-peptide fusion (GPS, HEK-293T) (PSI 1-6); higher = more stable;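 note: 24-mer peptide tiles fused after GFP, lentivirally expressed, FACS-sorted into six equal bins by GFP/DsRed ratio, decoded by Illumina sequencing, PSI is the read-weighted mean bin number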
Settings: treatment: MLN4924 1 uM, 8 h; c terminus: a fixed tail appended
Parameter Measured: protein stability index
// print number alone

>  <Sequence String>
FKYINTVISCTIFIVGMVGNATLL [EDNRA]

>  <Data Value>
2.89

$$$$

Req: Look at this sequence and give its reported protein stability index. ETQEQDVDLVQKYLEKYYNLKNDG [MMP1]
Resp: 3.92

Req: Look at this sequence and give its reported protein stability index. KKIYAMGGGSYGKLFESVECYDPR [GAN]
Resp: 2.99

Req: Look at this sequence and give its reported protein stability index. GARPPPTPPASPPPSVLISKNEVG [KMT2E]
Resp: 5.08

Req: Look at this sequence and give its reported protein stability index. ASPSSSVRLGSFRSPRAGAGALLR [PRPH]
Resp: 3.81

###

Experiment: protein stability index of a GFP-peptide fusion (GPS, HEK-293T) (PSI 1-6); higher = more stable
Settings: treatment: MLN4924 1 uM, 8 h; c terminus: a fixed tail appended
Parameter Measured: protein stability index

Please review the following examples before continuing.
>  <Sequence String>
GPPAPVGPPHARISQHGDPLLSNT [EMID1]

>  <protein stability index>
4.55

$$$$
>  <Sequence String>
AWNIPMSNPGVDFGDVSERLALRQ [GALNT9]

>  <protein stability index>
3.91

$$$$
>  <Sequence String>
METHKELKPLLSPSSETTVTVELP [LYSMD4]

>  <protein stability index>
5.06

$$$$
>  <Sequence String>
IIDYLEQTFLDERTPRLMPDKESM [GDAP1]

>  <protein stability index>
2.82

$$$$
>  <Sequence String>
AESHASKDVAIDMMDSRTSQQLQL [STX5]

>  <protein stability index>
4.89

$$$$
>  <Sequence String>
LMILRRVVNESTVCLMGHERRQTL [TENT5C]

>  <protein stability index>
2.34

$$$$
>  <Sequence String>
SMLSKNPEDRPSLDDIIRHDFFLQ [PLK2]

>  <protein stability index>
3.19

$$$$
>  <Sequence String>
DRKARKPLVEKKRRARINESLQEL [HES6]

>  <protein stability index>
4.71

$$$$

Req: Look at this sequence and give its reported protein stability index. LRSRYSVASFKFDAGEVSYLPRDF [MYORG]
Resp: 2.42

Req: Look at this sequence and give its reported protein stability index. NVTRHQAECALNERGVEGDFLIRD [NCK2]
Resp: 4.5

###

Test: protein stability index of a GFP-peptide fusion (GPS, HEK-293T) (PSI 1-6); higher = more stable
Settings: treatment: DMSO; c terminus: a fixed tail appended
Assign class 1 whenever protein stability index does not fall below 3; assign class 0 whenever it does.

Req: Quick check: does KGLLKKGACYGDDACFVARHRSAD [PPTC7] have protein stability index greater than or equal to 3?
Resp: class 1

###

Test: protein stability index of a GFP-peptide fusion (GPS, HEK-293T) (PSI 1-6); higher = more stable
Conditions: treatment: MLN4924 1 uM, 8 h; c terminus: a fixed tail appended
The reader will find reported protein stability index values listed item by item below.
// print number alone

>  <Sequence String>
ISGGFDRTVAIWDVAEGYRKLSLK [WDR88]

>  <Data Value>
3.02

$$$$

Req: Look at this sequence and give its reported protein stability index. DEAQGACLQQKQVVAEAQTRVSQL [LRRC45]
Resp: 5.09

Req: Look at this sequence and give its reported protein stability index. VKAEPFIKWLKEAEEESSGGEEED [EIF5]
Resp: 5.4

Req: Look at this sequence and give its reported protein stability index. LRNNQISHKGAEELALALKGNTTL [LRRC45]
Resp: 4.05

Req: Look at this sequence and give its reported protein stability index. AQGRAGAPVPEPPKEEQQQALEQF [EPB41L3]
Resp: 5.34

###

Assay: protein stability index of a GFP-peptide fusion (GPS, HEK-293T) (PSI 1-6); higher = more stable
Details: treatment: MLN4924 1 uM, 8 h; c terminus: a fixed tail appended
Parameter Measured: protein stability index
// print number alone

Please review the following examples before continuing.
>  <Sequence String>
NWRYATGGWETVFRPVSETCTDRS [FUT8]

>  <Data Value>
3

$$$$
>  <Sequence String>
AFGKICHMVSDGSWVVRVQAAKLL [INTS4]

>  <Data Value>
2.88

$$$$
>  <Sequence String>
EALAATWEQPWASEVFGPERMPPS [PXN]

>  <Data Value>
3.5

$$$$
>  <Sequence String>
LFTSFQEPPCEGNTFFCHSNMCIN [NETO1]

>  <Data Value>
2.13

$$$$
>  <Sequence String>
NKCSGMRFPLQEENSVTHHEVKCQ [KMT5A]

>  <Data Value>
4.61

$$$$

Req: Look at this sequence and give its reported protein stability index. SKAGPTRIFTSNTHSSVVLQGFDQ [KLHL13]
Resp: 3.32

Req: Look at this sequence and give its reported protein stability index. FGSGSNGCLGHGSLTDISQPTIVE [NEK8]
Resp: 3.91

Req: Look at this sequence and give its reported protein stability index. TFFEVSPLCNFNITESFTELARIV [RAB40B]
Resp: 2.14

Req: Look at this sequence and give its reported protein stability index. QKAGVTRSGRLILWEAPPLGAGGG [NEK8]
Resp: 2.95

Req: Look at this sequence and give its reported protein stability index. MPYISDKHPRQTLEVINLLRKHRE [KLHL20]
Resp: 2.98

Req: Look at this sequence and give its reported protein stability index. APFPPPPAADGARAPRSPGQVTPR [C6orf223]
Resp: 5.25

Req: Look at this sequence and give its reported protein stability index. EALGLEAEGAVPETQTLTGWSKGF [RHOBTB1]
Resp: 4.05

###

Test: protein stability index of a GFP-peptide fusion (GPS, HEK-293T) (PSI 1-6); higher = more stable
Conditions: treatment: DMSO; c terminus: a fixed tail appended
The reader will find reported protein stability index values listed item by item below.
// print number alone

>  <Sequence String>
YSSNQLHHFFCDIAPVLKLASHHN [OR10K2]

>  <protein stability index>
2.59

$$$$
>  <Sequence String>
AQYDSWPHYPEYFQQPAPEYHQPQ [LOXL2]

>  <protein stability index>
3.62

$$$$
>  <Sequence String>
FGSGSNGCLGHGSLTDISQPTIVE [NEK8]

>  <protein stability index>
3.5

$$$$
>  <Sequence String>
PVRRIDGLTDVSQIITVTVQTGLD [IQUB]

>  <protein stability index>
2.47

$$$$

From here, focus on the item given below.
Req: Look at this sequence and give its reported protein stability index. DLFEKKGYTFDYAYDWVGRPIPTP [CSNK1G1]
Resp: 2.26

###

The reader will find reported protein stability index values listed item by item below.
Experiment: protein stability index of a GFP-peptide fusion (GPS, HEK-293T) (PSI 1-6); higher = more stable
Conditions: treatment: MLN4924 1 uM, 8 h; c terminus: a fixed tail appended
// print number alone

>  <Sequence String>
EILSESVVPDVRSVVTTARMQVLK [SMARCE1]

>  <protein stability index>
2.54

$$$$
>  <Sequence String>
YMSQVLEKEMKAQEQRLGIRISMS [GMPPB]

>  <protein stability index>
2.74

$$$$
>  <Sequence String>
MEQVHRGIKGLVRDSHGKGIPNAI [CPXM2]

>  <protein stability index>
4.35

$$$$
>  <Sequence String>
DPACYEFLWGPRALVETSYVKVLH [MAGEA3]

>  <protein stability index>
2.12

$$$$

Req: Look at this sequence and give its reported protein stability index. MEMTRPTPPHLTSAMAENILAAAC [NOL4L]
Resp: 3.18

Req: Look at this sequence and give its reported protein stability index. QLERPLPLTSVCYPQDLPRPLRSR [TRAF3IP2]
Resp: 4.1

Req: Look at this sequence and give its reported protein stability index. RLLSVPELCHHVAEVWVSGTIFIR [RETREG3]
Resp: 2.69

Req: Look at this sequence and give its reported protein stability index. NIVNLLTTCSTPLLNSPPSFVCWS [AUP1]
Resp: 2.78

Req: Look at this sequence and give its reported protein stability index. SSPVDLVTATDQKVEKMLISSIKE [IMPA1]
Resp: 4.28

Req: Look at this sequence and give its reported protein stability index. KVRSLETENSALQLQVTEREEVRG [LMNB1]
Resp: 5.53

Req: Look at this sequence and give its reported protein stability index. VFITILIIALIALSVGQYNCPGQY [CD69]
Resp: 2.61

Req: Look at this sequence and give its reported protein stability index. VKVTFNKQDSLVILTIMATLKIRN [TMEM106C]
Resp: 2.89

Req: Look at this sequence and give its reported protein stability index. STMRRMALRPTAFSGCLNCSKVSE [EMID1]
Resp: 3.13

Req: Look at this sequence and give its reported protein stability index. RTVAIWDVAEGYRKLSLKGHNDWV [WDR88]
Resp: 2.54

Req: Look at this sequence and give its reported protein stability index. FYMFAWTHVTLLITVTQSHLVIQN [CDS1]
Resp: 3

Req: Look at this sequence and give its reported protein stability index. TGECKELEKKNEALKERADSLAKE [ATF4]
Resp: 5.59

Req: Look at this sequence and give its reported protein stability index. LYQLEGNNQITCRNGQWSEPPKCL [CFHR2]
Resp: 2.98

Req: Look at this sequence and give its reported protein stability index. NENDFYDGAWCAGRNDLQQWIEVD [CPXM2]
Resp: 4.05
